experimental.system: Torsin-1A (Homo sapiens)
assay.procedure: TOR1A wild-type binding on microarray – cell lysate, small-molecule microarray, lysate, 635/667 nm, primary screen (AID 1149)
test.conditions: COS7 hTOR1A-WT lysate, 635 nm fluorescence, higher = more signal

{"compound": "CC(C)=CCCC(C)=CC(O)C1C=CC2C(=O)N(c3ccccc3)C(=O)C2N1Nc1ccc(C(C)C)cc1 (configuration not stated)", "composite z-score": -0.728}
{"compound": "C=CCN1C(=O)[C@]2(Cc3ccccc3)N=C(c3ccc(OCCCO)cc3)O[C@@H]2c2ccccc21", "composite z-score": 0.443}
{"compound": "N#Cc1ccc(C(O)C2C=CC3C(=O)N(c4ccccc4)C(=O)C3N2Nc2ccccc2F)cc1 (configuration not stated)", "composite z-score": -0.291}
{"compound": "CC(C)C(=C=CC[C@H](O)c1ccc(CO)o1)CCO", "composite z-score": 0.385}
{"compound": "NC(=O)[C@@H]1[C@H]2C(=O)O[C@H](c3ccccc3)[C@H](c3ccccc3)N2[C@H](c2ccc(O)cc2)[C@@]12C(=O)Nc1ccc(C#CC3=CCCCC3)cc12", "composite z-score": 0.558}
{"compound": "C=CCC(OC(C)=O)[C@@H]1[C@@H](N(Cc2ccc(-c3cccc(C(F)(F)F)c3)o2)C(=O)c2cccc3ccccc23)c2cc(OCCCO)ccc2N1C(=O)Cc1ccc2ccccc2c1 (some centres not stated)", "composite z-score": 1.34}
{"compound": "C=CC[C@]12N=C(c3ccc(OCCCO)cc3)O[C@H]1c1ccccc1N(CCS(=O)(=O)c1ccccc1)C2=O", "composite z-score": 0.695}

====

System: Plasmodium falciparum Sir2 (PF13_0152, Sir2A)
assay.procedure: Plasmodium falciparum Sir2A binding compounds – biochemical, small-molecule microarray, 635 nm fluorescence, primary screen (AID 1098);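 also: score merges spot fluorescence intensity with its signal-to-noise ratio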
test.conditions: fluorescence 635 nm, higher = more signal
composite z-score values, listed per item

{"molecule": "CCOC(=O)C1=CC[C@@H](c2ccccc2)N(S(=O)(=O)c2ccc(C)cc2)[C@H]1c1ccc(CC)cc1", "composite z-score": 0.375}
{"molecule": "O=C1NC(=O)C2C1C=CC(C(O)C1CC=CCC1)N2Nc1ccccn1 (stereo not drawn)", "composite z-score": 1.27}
{"molecule": "CCCC=C(CCC)[C@@H](NS(=O)(=O)c1ccc(Cl)cc1)c1ccc(C(=O)OC)cc1", "composite z-score": 0.456}
{"molecule": "COc1ccc([C@H]2C[C@H]3C(I)=C[C@@H]2C(=O)[C@]32CO2)cc1", "composite z-score": 0.802}
{"molecule": "CC(C)[Si](C#CCCCC#N)(O[C@H](c1ccccc1)c1cn(Cc2cccc(Cl)c2)nn1)C(C)C", "composite z-score": 0.397}
{"molecule": "CS(=O)(=O)CCOC(=O)C1=CC(CCCO)=CC(C2CC2)N(Cc2cc3c(cc2Br)OCO3)C=C1C(=O)OCCS(C)(=O)=O (stereo not drawn)", "composite z-score": 0.405}
{"molecule": "O=C1O[C@@H](c2ccccc2)[C@@H](c2ccccc2)N2[C@@H](c3ccccc3OCCO)[C@]3(C(=O)Nc4ccccc43)[C@@H](C(=O)O)[C@H]12", "composite z-score": 1.61}
{"molecule": "O=C1O[C@@H](c2ccccc2)[C@@H](c2ccccc2)N2[C@@H](c3ccc(OCCO)cc3)[C@]3(C(=O)Nc4ccc(C#CCCO)cc43)[C@@H](C(=O)NC[C@H](O)c3ccccc3)[C@H]12", "composite z-score": 1.51}
{"molecule": "[N-]=[N+]=NCc1ccccc1[C@@H]1OC(c2ccc(OCCCO)cc2)=N[C@]1(CCS(=O)(=O)c1ccccc1)C(=O)N1CCCCC1", "composite z-score": 1.65}
{"molecule": "O=C1OCC=C[C@H]2OC34C=CCN(CCN5CCOCC5)C(=O)[C@H]3N(CCO)C(=O)[C@@H]4[C@@H]12 (stereo partly drawn)", "composite z-score": 1.47}
{"molecule": "CCCNC(=O)[C@@H]1c2ccccc2C(=O)N(Cc2ccccc2OC)[C@H]1c1ccc(CO)cc1", "composite z-score": 1.37}
{"molecule": "COC(=O)c1c2oc(c1C(=O)OC)C(=O)NC1(CCCCC1)c1cn(nn1)C[C@H](Cc1ccccc1)NC(=O)N[C@H](CO)CC2", "composite z-score": -0.856}
{"molecule": "O=C1OCCC/C=C\\[C@H]2OC34C=CCN(c5ccc6ccccc6c5)C(=O)[C@H]3N(CCCCCO)C(=O)[C@@H]4C12 (stereo partly drawn)", "composite z-score": 0.227}
{"molecule": "CC(C)(C)OC(=O)CC[C@@]1(C(=O)N2CCCCC2)N=C(c2ccc(OCCCO)cc2)O[C@@H]1c1ccccc1", "composite z-score": 1.74}
{"molecule": "[N-]=[N+]=Nc1ccccc1C[C@]1(C(=O)N2CCCCC2)COC(c2ccc(OCCCO)cc2)=N1", "composite z-score": -0.315}
{"molecule": "COCCCNC(=O)[C@@]1(Sc2ccc(C)cc2)CC(=O)N(Cc2ccccc2Cl)[C@@H]1c1ccc(CO)cc1", "composite z-score": 1.36}
{"molecule": "O=C(CS)NCCCCCNC(=O)[C@H]1C[C@H]2C(=O)NCC(=O)N2[C@H]1c1ccc(O)cc1", "composite z-score": 0.394}
{"molecule": "COC(=O)[C@H](Cc1ccccc1)N[C@H](/C=C/C1CC1)[C@@H](O)Cc1ccccc1", "composite z-score": -0.111}
